assay: Acute toxicity, LD50 after three weeks observation; type: in vivo, mice (CDF1, female); conditions: mouse, in vivo; intravenous administration; CDF1 mice; three weeks observation
measurement_kind: LD50 at 504 h (mg/kg)
Numbers only; they are read as mg/kg.

O=c1[nH]cc(F)c(=O)[nH]1 has a reported LD50 at 504 h of 135

----------
experiment: Acute toxicity, LD50 after three weeks observation; format: in vivo, mice (CDF1, female); settings: mouse, in vivo; oral administration; CDF1 mice; three weeks observation
measurement_kind: LD50 at 504 h (mg/kg)
Numbers only; they are read as mg/kg.

O=c1[nH]cc(F)c(=O)[nH]1 has a reported LD50 at 504 h of 120
